Test system: MDA-MB-468 (human epithelial breast adenocarcinoma)
Experiment: MTT chemosensitivity (IC50), MDA-MB-468 cells
Format: cell-based
Conditions: 96 h exposure, triplicate, mean with standard deviation (esd)
measuredQuantity: pIC50
One number for each entry, as −log10 of the molar value.

Short answer please: pIC50, MDA-MB-468 (human epithelial breast adenocarcinoma), entry N.N.[Cl][Pt][Cl] [cisplatin]
5.60

---

System: HCT116 p53^–/– (human colon carcinoma, p53-null)
Assay: MTT chemosensitivity (IC50), HCT116 p53-/- cells
Format: cell-based
Conditions: 96 h exposure, triplicate, mean with standard deviation (esd)
measuredQuantity: pIC50
Answers are plain numbers, as −log10 of the molar value.

Could you share which pIC50 value was measured for N.N.[Cl][Pt][Cl] [cisplatin] ?
5.09
